Test system: HCT-116
assay_explanation: NCI tumour cell line growth inhibition, 48 h
The source made the active and inactive calls. Cut-off read from the data, not from the text of the source: active = GI50 up to about 1.1 µM and inactive = higher.
Could you please report measured GI50 for the items listed next?

Look up GI50 of COc1cccc(NC(=O)CSc2nnc(-c3ccc(NC(C)=O)cc3)o2)c1 and report it.
> 100 µM (inactive)

Please look at this molecule and report its GI50: O=C(Nc1ccc(C(F)(F)F)cc1[N+](=O)[O-])C(=O)C(C(=O)c1ccc2ccccc2c1)C1OC(=O)c2ccccc21 (stereo not given)
4.36 µM (inactive)

Item O=C1C(Cl)=C(Sc2nnc3c4ccccc4c4ccccc4c3n2)C(=O)c2ccccc21 : provide GI50
16 µM (inactive)

For CCOC(=O)NC1=C(N2CC2)C(=O)C(NC(=O)OCC)=C(N2CC2)C1=O , write its GI50.
3.53 µM (inactive)

Report measured GI50; entry is CCOC(=O)/C(C#N)=C/N(CC)/N=C/c1ccccc1
> 100 µM (inactive)
